Overview of recorded z-score for various molecules
biological target: Luciferin 4-monooxygenase (Photinus pyralis) (UniProt P08659); assay: firefly luciferase enzyme inhibitors, primary screen, biochemical, luminescence, purified enzyme, 2006 set (AID 1141); details: SteadyGlo luminescence, 30 min, higher = more signal, called active from +8 up or from −8 down;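 note: cell-free assay with purified firefly luciferase at 100 ng per well in PBS; test concentration not given here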
Sequence (P08659 whole entry, looked up): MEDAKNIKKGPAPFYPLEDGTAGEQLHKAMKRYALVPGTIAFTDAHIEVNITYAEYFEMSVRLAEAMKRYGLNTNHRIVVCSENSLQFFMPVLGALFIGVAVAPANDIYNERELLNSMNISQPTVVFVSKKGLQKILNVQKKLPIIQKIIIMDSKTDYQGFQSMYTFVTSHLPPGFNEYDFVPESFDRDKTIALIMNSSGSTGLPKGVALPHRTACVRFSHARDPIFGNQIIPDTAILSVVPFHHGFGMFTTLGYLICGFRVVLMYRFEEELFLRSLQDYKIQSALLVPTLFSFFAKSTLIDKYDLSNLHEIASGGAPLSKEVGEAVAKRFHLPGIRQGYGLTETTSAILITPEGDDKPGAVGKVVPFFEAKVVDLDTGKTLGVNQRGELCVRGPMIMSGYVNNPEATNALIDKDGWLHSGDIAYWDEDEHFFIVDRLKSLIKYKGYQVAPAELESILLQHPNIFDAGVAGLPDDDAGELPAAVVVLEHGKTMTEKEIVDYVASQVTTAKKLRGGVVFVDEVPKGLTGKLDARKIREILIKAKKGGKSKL
Please reply with the value in numeric form only.

molecule	z-score
COCCCN1C(=O)[C@@]2(Cc3ccccc31)c1ccccc1C(=O)N(Cc1ccccc1OC)[C@H]2c1ccc(CO)cc1	-0.522

Ask | What measured z-score is associated with COc1ccc([Si](C)(C)[C@H]2[C@H](CCn3cc([C@H](O)c4ccccc4)nn3)O[C@@]3(C(=O)N(c4ccccc4)c4ccccc43)[C@@H]2C)cc1 on Luciferin 4-monooxygenase (Photinus pyralis) (UniProt P08659)?
Reply | 0.687

Ask | What measured z-score is associated with C#CCN=C(N)N on Luciferin 4-monooxygenase (Photinus pyralis) (UniProt P08659)?
Reply | 0.523

Ask | What measured z-score is associated with C/C=C/CN(C(=O)C#Cc1ccccc1)[C@H](CO[Si](C)(C)C(C)(C)C)c1ccccc1 on Luciferin 4-monooxygenase (Photinus pyralis) (UniProt P08659)?
Reply | -0.178

Ask | What measured z-score is associated with COC(=O)[C@@]1(Cc2ccc(OC)cc2)[C@H]2c3cc(C(=O)N4CCCC4)n(CCc4ccc(OC)c(Br)c4)c3C[C@H]2CN1C(=O)c1ccccc1 on Luciferin 4-monooxygenase (Photinus pyralis) (UniProt P08659)?
Reply | 0.626

Ask | What measured z-score is associated with CC(C)C[C@@H]1NC(=O)[C@@]23C(=O)N[C@@H](Cc4ccccc4)C2[C@H](C)[C@@]2(C)O[C@H]2C3/C=C/C/C=C\CNC(=O)[C@@H](CC(C)C)NC1=O (some centres not stated) on Luciferin 4-monooxygenase (Photinus pyralis) (UniProt P08659)?
Reply | -1.23

Ask | What measured z-score is associated with C=CCC(OC(C)=O)[C@@H]1[C@@H](N(Cc2ccc(-c3cccc(C(F)(F)F)c3)o2)C(=O)Cc2ccc(OC)cc2)c2cc(OCCCO)ccc2N1C(=O)c1ccc2ccccc2n1 (some centres not stated) on Luciferin 4-monooxygenase (Photinus pyralis) (UniProt P08659)?
Reply | 0.471

Reference source: PubChem BioAssay
